Reported herbicidal effect rating, CYPIR values for a set of molecules
- Tested on: Cyperus iria
- assay name: Preemergence weed control under flooded paddy conditions, CYPIR (Rice Flatsedge); also: meaning of each grade not given here
- Assay type: in vivo
- details: Rate 0.0320 kg/ha; preemergence, flooded paddy; rated 3-4 weeks after treatment

Previously resolved entries follow.
>  <molecule>
Cc1ccc(OCC(=O)OCC2(c3ccccc3)CC2)c(-c2nsc3ccc(-n4c(=O)cc(C(F)(F)F)n(C)c4=O)cc23)c1

>  <recorded value>
5.5

$$$$
>  <molecule>
CON(C)C(=O)/C=C/c1nsc2ccc(-n3c(=O)cc(C(F)(F)F)n(C)c3=O)cc12

>  <recorded value>
0.0

$$$$

For the molecule Cc1ccc(C(=O)C(C)Oc2ccccc2-c2nsc3ccc(-n4c(=O)cc(C(F)(F)F)n(C)c4=O)cc23)cc1C (stereo not drawn) , give its measured herbicidal effect rating, CYPIR value.
2.0

====

- Test system: Sagittaria pygmaea, L.
- assay name: Preemergence weed control under flooded paddy conditions, SAGPY (Arrowhead (Pygmaea)); also: meaning of each grade not given here
- Assay type: in vivo
- details: 0.2500 kg/ha; preemergence, flooded paddy; rated three to four weeks after treatment
quantity: herbicidal effect rating, SAGPY
Just the number, please, no unit attached.

# example entries with known answers
>  <test smiles>
COc1cc(C)ccc1-c1nsc2ccc(-n3c(=O)cc(C(F)(F)F)n(C)c3=O)cc12

>  <target of assay>
Sagittaria pygmaea, L.

>  <herbicidal effect rating, SAGPY>
9.0

$$$$
>  <test smiles>
COc1ccccc1Oc1noc2ccc(-n3c(=O)cc(C(F)(F)F)n(C)c3=O)cc12

>  <target of assay>
Sagittaria pygmaea, L.

>  <herbicidal effect rating, SAGPY>
0.0

$$$$
>  <test smiles>
Cc1nsc2ccc(-n3c(=O)cc(C(F)(F)F)n(C)c3=O)cc12

>  <target of assay>
Sagittaria pygmaea, L.

>  <herbicidal effect rating, SAGPY>
7.0

$$$$
>  <test smiles>
Cn1c(C(F)(F)F)cc(=O)n(-c2ccc3snc(-c4ccccc4)c3c2)c1=O

>  <target of assay>
Sagittaria pygmaea, L.

>  <herbicidal effect rating, SAGPY>
9.0

$$$$
>  <test smiles>
COc1ccc(C(C)C)cc1-c1nsc2ccc(-n3c(=O)cc(C(F)(F)F)n(C)c3=O)cc12

>  <target of assay>
Sagittaria pygmaea, L.

>  <herbicidal effect rating, SAGPY>
7.0

$$$$

Please indicate herbicidal effect rating, SAGPY recorded for "CCc1ccc(-c2nsc3ccc(-n4c(=O)cc(C(F)(F)F)n(C)c4=O)cc23)cc1"
7.0

Give reported herbicidal effect rating, SAGPY value for "CC(=O)OCc1nsc2ccc(-n3c(=O)cc(C(F)(F)F)n(C)c3=O)cc12"
9.0

Give reported herbicidal effect rating, SAGPY value for "C=CCOc1ccc(C)cc1-c1nsc2ccc(-n3c(=O)cc(C(F)(F)F)n(C)c3=O)cc12"
0.0

====

- Tested on: Cyperus serotinus, Rottb.
- assay name: Preemergence weed control under flooded paddy conditions, CYPSE (Flatsedge); also: meaning of each grade not given here
- Assay type: in vivo
- details: Rate 0.0320 kg/ha, preemergence, rated 3-4 weeks after treatment
quantity: herbicidal effect rating, CYPSE
A bare number is all that is needed in reply.

Use the examples below as a reference point.
>  <compound>
CNC(=O)COc1ccc(C)cc1-c1nsc2ccc(-n3c(=O)cc(C(F)(F)F)n(C)c3=O)cc12

>  <recorded value>
0.0

$$$$
>  <compound>
CCCCCCCCCOC(=O)COc1ccc(C)cc1-c1nsc2ccc(-n3c(=O)cc(C(F)(F)F)n(C)c3=O)cc12

>  <recorded value>
0.0

$$$$
>  <compound>
C=CC(CCCC)OC(=O)COc1ccc(C)cc1-c1nsc2ccc(-n3c(=O)cc(C(F)(F)F)n(C)c3=O)cc12 (stereo not drawn)

>  <recorded value>
0.0

$$$$

Specify reported herbicidal effect rating, CYPSE for the compound shown: "Cc1ccc(OCC(=O)OCC2(c3ccccc3)CC2)c(-c2nsc3ccc(-n4c(=O)cc(C(F)(F)F)n(C)c4=O)cc23)c1"
3.0

Identify measured herbicidal effect rating, CYPSE associated with "C=CCOC(=O)/C=C/c1nsc2ccc(-n3c(=O)cc(C(F)(F)F)n(C)c3=O)cc12"
0.0

Quick one: give measured herbicidal effect rating, CYPSE for "Cc1ccc(OCC(=O)c2ccc(Cl)cc2)c(-c2nsc3ccc(-n4c(=O)cc(C(F)(F)F)n(C)c4=O)cc23)c1"
0.0
